- method_notes: clinical
- condition_summary: human, plasma, oral, 10 mg, Tmax, Day 1 (single dose); 10 mg BID; median; plasma deuterated domperidone
endpoint_name: Tmax (h)

>>> result_number("[2H]c1c([2H])c([2H])c2c([nH]c(=O)n2CCCN2CCC(n3c(=O)[nH]c4cc(Cl)ccc43)CC2)c1[2H]")
2

====

- method_notes: clinical
- condition_summary: human, plasma, oral, median Tmax, across dose groups (5 mg BID, 10 mg BID, 20 mg QD), patients with gastroparesis
endpoint_name: Tmax

>>> result("[2H]c1c([2H])c([2H])c2c([nH]c(=O)n2CCCN2CCC(n3c(=O)[nH]c4cc(Cl)ccc43)CC2)c1[2H]")
"2 to 2.5 h"

====

- method_notes: clinical
- condition_summary: human, plasma, oral, 5 mg, Tmax, Day 1 (single dose); 5 mg BID; median; plasma deuterated domperidone
endpoint_name: Tmax

>>> result("[2H]c1c([2H])c([2H])c2c([nH]c(=O)n2CCCN2CCC(n3c(=O)[nH]c4cc(Cl)ccc43)CC2)c1[2H]")
"2 h"
